# System: MDA-MB-435
Hello, when you answer, please use one of the following outcomes: yes for active, no for inactive

{"smiles_representation": "Nc1c(C(=O)c2cccc(CCCN3CCOCC3)c2)cnn1-c1ccc(F)cc1", "category_label": "no"}
{"smiles_representation": "F", "category_label": "no"}
{"smiles_representation": "FC(F)(F)Oc1cccc(-c2cnc3ccc(-c4ccncc4)nn23)c1", "category_label": "no"}
{"smiles_representation": "Nc1ccc2c(c1)C(=O)C(=O)c1c-2nc2ccccn12", "category_label": "yes"}

Prompt line: Test call for this compound, please: `Cc1nc(-c2cccc(Nc3nc(-c4ccc(Cl)cc4)cs3)c2)cs1`
Response line: no

Prompt line: Test call for this compound, please: `COc1ccccc1NC(=O)c1sc2nc3c(cc2c1N)C(=O)CCC3`
Response line: yes

Prompt line: Test call for this compound, please: `O=C(Nc1ccc(Cl)c(Cl)c1)c1cccc(NC2=C(Cl)C(=O)N(Cc3ccccc3)C2=O)c1`
Response line: no

Prompt line: Test call for this compound, please: `COC(=O)CCC(=O)C(=O)OC`
Response line: no

Prompt line: Test call for this compound, please: `O=C(Nc1cccc(-n2ccc3c(NC(=O)c4ccccc4)nccc32)c1)c1ccc(N2CCOCC2)c(C(F)(F)F)c1`
Response line: yes

Prompt line: Test call for this compound, please: `CC1(C#N)N(C(=O)c2ccccc2)c2ccccc2N1C(=O)c1ccccc1`
Response line: no

----------
# Tested on: SF-268 CNS
# assay: NCI tumour cell line growth inhibition, 48 h
readout_name: TGI

// known answers, use as guide
{"compound": "OC1[C@H]([C@H]2CCCC[C@@H]2O)CCC[C@@H]1[C@@H]1CCCC[C@H]1O (stereo partly specified)", "TGI": "> 100 µM"}
{"compound": "O=C1C(Cl)=C(Nc2cccc(Cl)c2)C(=O)N1Cc1ccccc1", "TGI": "22.2 µM"}
{"compound": "Cc1c2cc[n+](C)cc2c(C)c2c1sc1ccccc12", "TGI": "1.14 µM"}
{"compound": "CN(C)C(Cc1cnc[nH]1)C(=O)N1CCCC1C(N)=O (stereo unspecified)", "TGI": "> 100 µM"}
{"compound": "CC(C)(C)NNC(=O)/C(=C/c1ccc([N+](=O)[O-])cc1)NC(=O)c1ccccc1", "TGI": "> 100 µM"}

Prompt line: Can you look up the measured TGI of `CC(=O)NCCc1c2c(c3nccc4c3c1Nc1ccccc1-4)OCS2` for me?
Response line: 11.4 µM

----------
# Test system: 786-0 renal
# assay: NCI tumour cell line growth inhibition, 48 h
Where a name gives a salt, the structure may show the parent alone. Where a SMILES comes first, the peptide text is derived from it. The star is where a group is joined. Tfa = O=C(C(F)(F)F)*
readout_name: TGI

Prompt line: Can you look up the measured TGI of COc1cccc(C2c3cc4c(cc3OC(C)(N3CCCC3)C2C)OCO4)c1OC (stereo not given) for me?
Response line: > 100 µM

Prompt line: Can you look up the measured TGI of `COc1ccc(OC)c(/C=N/NC(=O)Cc2csc3nc(-c4ccc(Br)cc4)cn23)c1` for me?
Response line: > 100 µM

Prompt line: Can you look up the measured TGI of `CC1(C)[C@H](C(=O)O)N2C(=O)[C@@H](NS(=O)(=O)c3ccc([N+](=O)[O-])cc3)[C@H]2S1(=O)=O` for me?
Response line: > 100 µM

Prompt line: Can you look up the measured TGI of `COc1ccc(C(=O)c2cc(OC)c(OC)c(OC)c2)cc1` for me?
Response line: > 79.2 µM

Prompt line: Can you look up the measured TGI of O=C(O)CC(NC(=O)C(F)(F)F)C(=O)NC(Cc1ccc(O)cc1)C(=O)O (stereo not drawn) (Tfa-Asp-Tyr-OH; configuration not given here) for me?
Response line: > 50 µM

----------
# System: HCT-116 colon
# assay: NCI tumour cell line growth inhibition, 48 h
readout_name: TGI

{"molecule": "OC1[C@H]([C@H]2CCCC[C@@H]2O)CCC[C@@H]1[C@@H]1CCCC[C@H]1O (stereo partly drawn)", "assay_value": "> 100 µM"}
{"molecule": "CC(=O)N[C@@H](Cc1ccc(OP(=O)(O)O)cc1)C(=O)N[C@H]1CCC(=O)N2CCC[C@@H](C(=O)NCc3ccc(Cl)cc3)N2C1=O", "assay_value": "> 25 µM"}

In the following, a different molecule is considered.
Prompt line: Can you look up the measured TGI of COc1ccc(C2CC(=O)c3c(O)cc(O)cc3O2)cc1O (stereo not drawn) for me?
Response line: > 100 µM

----------
# System: UACC-257 melanoma
# assay: NCI tumour cell line growth inhibition, 48 h
readout_name: log10 of TGI (log10 of the value in µM)
Scale type: logarithmic (base 10). Underlying TGI unit: µM.

{"compound": "COc1ccc(C2CC(c3cc(OC)c(OC)c(OC)c3)=NO2)cc1OCCCCOc1cc2c(cc1OC)C(=O)N1CCC[C@H]1C=N2 (stereo not given in full)", "log10 of TGI": 0.70}
{"compound": "CCSCC1CC(O)(c2ccccc2)C(c2ccccc2)C(c2ccc(Cl)cc2)O1 (stereo not given)", "log10 of TGI": 0.60}
{"compound": "O=C1/C(=C/c2ccccc2)CCCC1CN1CCCCC1 (stereo not given)", "log10 of TGI": 1.34}

In the following, a different compound is considered.
Prompt line: Can you look up the measured log10 of TGI of CN1N=CSC12C(=O)N(c1ccc(Cl)cc1)C(=O)N2c1ccc(Cl)cc1 (stereo not given) for me?
Response line: 1.53

----------
Measured TGI, listed per entry for reference.
# System: IGROV1 ovarian
# assay: NCI tumour cell line growth inhibition, 48 h

// known answers, use as guide
{"compound": "COc1cc(/C=C/c2ccncc2)cc(OC)c1OC", "assay_value": "> 100 µM"}
{"compound": "CCOC(=O)c1ccc(Nc2cnc3cc(C(F)(F)F)ccc3n2)cc1", "assay_value": "> 100 µM"}
{"compound": "COC1=C2CC(C)CC(OC)C(O)C(C)/C=C(\\C)C(OC(N)=O)C(OC)/C=C\\C=C(/C)C(=O)NC(=C(C=NC(C)(C)C)C1=O)C2=O (configuration not stated)", "assay_value": "53.2 µM"}
{"compound": "COc1ccccc1/C=C/C1=NN(c2cccc(S(=O)(=O)O)c2)C2(C1)SCC(=O)N2c1nc2ccccc2s1 (configuration not stated)", "assay_value": "> 100 µM"}
{"compound": "O=C(O)c1cc2ccccc2c(N=Nc2ccccc2)c1O", "assay_value": "> 100 µM"}

Prompt line: Can you look up the measured TGI of `Cc1ccc(S(=O)(=O)N[C@H](C(=O)O)c2ccccc2)cc1` for me?
Response line: > 100 µM

Prompt line: Can you look up the measured TGI of `CC(C)[C@]12O[C@H]1[C@@H]1O[C@]13[C@]1(O[C@H]1C[C@H]1C4=C(CC[C@@]13C)C(=O)OC4)[C@@H]2O` for me?
Response line: > 100 µM

Prompt line: Can you look up the measured TGI of `NCC(=O)NC1(c2cc3ccccc3s2)CCCCC1` for me?
Response line: > 100 µM

Prompt line: Can you look up the measured TGI of `O=c1sc2c(s1)SSSSS2` for me?
Response line: > 50 µM

----------
Measured TGI, listed per entry for reference.
# Test system: SNB-19 CNS
# assay: NCI tumour cell line growth inhibition, 48 h

{"molecule": "COc1cc2c(/C=C3/C(=O)N(C)c4ccccc43)c(Cl)[nH]c2cc1C", "assay_value": "14.2 µM"}
{"molecule": "CC(=O)N[C@@H](Cc1ccc(OP(=O)(O)O)cc1)C(=O)N[C@H]1CCC(=O)N2CCC[C@@H](C(=O)NCc3ccc(Cl)cc3)N2C1=O", "assay_value": "> 25 µM"}
{"molecule": "CC(NS(=O)(=O)c1ccc([N+](=O)[O-])cc1)C(=O)O (stereo unspecified)", "assay_value": "> 100 µM"}
{"molecule": "CC(=O)OC1C(C)OC(Oc2c(C)c3c4c(c2O)[C@@H](C)CC[C@@H]4[C@@H](C)C[C@H]3C=C(C)C)C(O)C1O (stereo partly specified)", "assay_value": "> 100 µM"}
{"molecule": "ON/N=C/c1cc2c(cc1Br)OCO2", "assay_value": "> 386 µM"}

Prompt line: Can you look up the measured TGI of `COc1ccc(OC)c(/C=N/NC(=O)Cc2csc3nc(-c4ccc(Br)cc4)cn23)c1` for me?
Response line: > 100 µM

Prompt line: Can you look up the measured TGI of `CCc1ccc(N=Cc2cc(OC)c(OC)c(OC)c2)cc1` for me?
Response line: > 100 µM

Prompt line: Can you look up the measured TGI of `CN(C)c1ccc(/C=c2/c3ccccc3n3c2c2ccccc2[n+]3C)cc1` for me?
Response line: 4.76 µM

Prompt line: Can you look up the measured TGI of `O=C1c2ccccc2-c2c1c1ccccc1c(=O)n2CCCCNCCCn1c2c(c3ccccc3c1=O)C(=O)c1ccccc1-2` for me?
Response line: 10.4 µM
